# System: α7–GlyR mutant chimeric channels (Homo sapiens, UniProt P36544, P216M)
# Sequence (P36544 23-230 P216M): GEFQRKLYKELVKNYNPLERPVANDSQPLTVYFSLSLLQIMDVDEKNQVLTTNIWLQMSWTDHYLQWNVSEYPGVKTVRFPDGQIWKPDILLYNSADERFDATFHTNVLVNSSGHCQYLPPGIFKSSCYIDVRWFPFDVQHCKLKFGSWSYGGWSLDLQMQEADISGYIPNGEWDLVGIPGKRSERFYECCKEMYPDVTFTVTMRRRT
# Sequence (P23415 248-457 partner): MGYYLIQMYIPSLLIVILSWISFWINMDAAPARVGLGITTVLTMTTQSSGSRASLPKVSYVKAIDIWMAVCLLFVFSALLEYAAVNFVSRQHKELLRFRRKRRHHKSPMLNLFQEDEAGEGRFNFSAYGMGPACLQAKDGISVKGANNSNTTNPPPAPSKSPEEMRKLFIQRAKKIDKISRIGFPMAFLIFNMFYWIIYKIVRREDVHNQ
# Protocol: Membrane potential assay screen, mutant α7–GlyR chimeric channels
# Assay type: cell-based
# Experimental Parameters: EC50 at α7 GlyR P216M, Avg, sheet 1d
pEC50: −log10 of the molar value.
Measured Attribute: pEC50

Specify measured pEC50 for `COC(=O)[C@H]1[C@@H](OC(=O)c2ccccc2)C[C@@H]2CC[C@H]1N2C` .
< 4.52

###

# System: α7–5HT3 mutant chimeric channels (Homo sapiens, UniProt P36544, S170W)
# Sequence (P36544 23-224 S170W, one chain of several): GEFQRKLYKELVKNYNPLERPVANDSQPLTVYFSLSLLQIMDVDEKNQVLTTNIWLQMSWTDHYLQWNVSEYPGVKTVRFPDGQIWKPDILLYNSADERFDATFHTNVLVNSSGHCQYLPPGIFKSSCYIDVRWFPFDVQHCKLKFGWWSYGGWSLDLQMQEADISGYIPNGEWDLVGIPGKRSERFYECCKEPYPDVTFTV
# Protocol: cell-based
Measured Attribute: EC50

Specify measured EC50 for COC(=O)[C@H]1[C@@H](OC(=O)c2ccccc2)C[C@@H]2CC[C@H]1N2C [cocaine] .
> 30 µM

###

# System: α7–5HT3 mutant chimeric channels (Homo sapiens, UniProt P36544, Q139F)
# Sequence (P36544 23-224 Q139F): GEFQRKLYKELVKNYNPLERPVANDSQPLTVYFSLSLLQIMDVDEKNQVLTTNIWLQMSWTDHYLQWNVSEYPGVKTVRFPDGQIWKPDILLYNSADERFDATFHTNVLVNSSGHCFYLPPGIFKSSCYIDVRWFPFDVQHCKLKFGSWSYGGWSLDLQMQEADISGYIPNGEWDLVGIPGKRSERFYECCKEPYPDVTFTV
# Sequence (P23979 242-489, further chain): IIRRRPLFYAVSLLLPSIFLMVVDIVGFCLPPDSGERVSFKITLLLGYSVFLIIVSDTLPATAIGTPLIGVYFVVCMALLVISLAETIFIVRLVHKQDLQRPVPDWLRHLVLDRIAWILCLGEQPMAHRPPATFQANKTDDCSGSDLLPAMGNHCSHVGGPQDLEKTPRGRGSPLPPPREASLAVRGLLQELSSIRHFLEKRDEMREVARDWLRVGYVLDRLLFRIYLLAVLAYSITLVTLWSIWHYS
# Protocol: cell-based
# Type: cell-based, human α7 nAChR LBD, mouse 5HT3 IPD
# Experimental Parameters: read-out: EC50 at a7 5HT3 Q139F, Avg; sheet 1d; Avg
Measured Attribute: EC50

Specify measured EC50 for `COC(=O)[C@H]1[C@@H](OC(=O)c2ccccc2)C[C@@H]2CC[C@H]1N2C` .
> 30 µM

###

# System: α7–GlyR mutant chimeric channels (Homo sapiens, UniProt P36544, Q79A)
# Sequence (P36544 23-230 Q79A): as the sequence (P36544 23-230 P216M) above, with Q57A, M194P counted along it
# Sequence (P23415 248-457 partner): as the sequence (P23415 248-457 partner) above
# Protocol: Membrane potential assay screen, mutant α7–GlyR chimeric channels
# Assay type: cell-based
# Experimental Parameters: EC50 at α7-GlyR Q79A, sheet 1d; single determinations
Measured Attribute: EC50

Print α7–GlyR mutant chimeric channels (Homo sapiens, UniProt P36544, Q79A) EC50 for `COC(=O)[C@H]1[C@@H](OC(=O)c2ccccc2)C[C@@H]2CC[C@H]1N2C` .
> 30 µM

###

# System: α7–GlyR mutant chimeric channels (Homo sapiens, UniProt P36544, L131Q)
# Protocol: Membrane potential assay screen, mutant α7–GlyR chimeric channels
# Type: cell-based
# Experimental Parameters: EC50 at α7 GlyR L131Q, sheet 1d; single determinations
pEC50: −log10 of the molar value.
Measured Attribute: pEC50

Specify measured pEC50 for COC(=O)[C@H]1[C@@H](OC(=O)c2ccccc2)C[C@@H]2CC[C@H]1N2C [cocaine] .
< 4.52

###

# System: α7–5HT3 mutant chimeric channels (Homo sapiens, UniProt P36544, L141A)
# Sequence (P36544 23-224 L141A): as the sequence (P36544 23-224 Q139F) above, with F117Q, L119A counted along it
# Sequence (P23979 242-489, further chain): as the sequence (P23979 242-489, further chain) above
# Protocol: cell-based
Measured Attribute: EC50 (µM)
Answers are plain numbers, in µM.

Specify measured EC50 for `COC(=O)[C@H]1[C@@H](OC(=O)c2ccccc2)C[C@@H]2CC[C@H]1N2C` .
3.5

###

# System: α7–5HT3 mutant chimeric channels (Homo sapiens, UniProt P36544, Q139D)
# Sequence (P36544 23-224 Q139D, one chain of several): as the sequence (P36544 23-224 S170W, one chain of several) above, with Q117D, W148S counted along it
# Protocol: cell-based
# Assay type: cell-based, human α7 nAChR LBD, mouse 5HT3 IPD
Measured Attribute: EC50

Specify measured EC50 for `COC(=O)[C@H]1[C@@H](OC(=O)c2ccccc2)C[C@@H]2CC[C@H]1N2C` .
> 30 µM

###

# System: α7–5HT3 mutant chimeric channels (Homo sapiens, UniProt P36544, Q139D)
# Protocol: cell-based
# Assay type: cell-based, human α7 nAChR LBD, mouse 5HT3 IPD
# Experimental Parameters: read-out: EC50 at a7 5HT3 Q139D, Avg; sheet 1d; Avg
Measured Attribute: EC50

Print α7–5HT3 mutant chimeric channels (Homo sapiens, UniProt P36544, Q139D) EC50 for COC(=O)[C@H]1[C@@H](OC(=O)c2ccccc2)C[C@@H]2CC[C@H]1N2C [cocaine] .
> 30 µM

###

# System: α7–5HT3 mutant chimeric channels (Homo sapiens, UniProt P36544, Q79A)
# Protocol: cell-based
# Type: cell-based, human α7 nAChR LBD, mouse 5HT3 IPD
# Experimental Parameters: read-out: EC50 at a7 5HT3 Q79A; sheet 1d; single determinations
pEC50: −log10 of the molar value.
Measured Attribute: pEC50

Specify measured pEC50 for COC(=O)[C@H]1[C@@H](OC(=O)c2ccccc2)C[C@@H]2CC[C@H]1N2C [cocaine] .
< 4.52

###

# System: α7–5HT3 mutant chimeric channels (Homo sapiens, UniProt P36544, W77Y)
# Sequence (P36544 23-224 W77Y): as the sequence (P36544 23-224 Q139F) above, with W55Y, F117Q counted along it
# Sequence (P23979 242-489, further chain): as the sequence (P23979 242-489, further chain) above
# Protocol: cell-based
# Type: cell-based, human α7 nAChR LBD, mouse 5HT3 IPD
pEC50: −log10 of the molar value.
Measured Attribute: pEC50

Specify measured pEC50 for `COC(=O)[C@H]1[C@@H](OC(=O)c2ccccc2)C[C@@H]2CC[C@H]1N2C` .
< 4.52

###

# System: α7–5HT3 mutant chimeric channels (Homo sapiens, UniProt P36544, W77F)
# Protocol: cell-based
# Format: cell-based, human α7 nAChR LBD, mouse 5HT3 IPD
Measured Attribute: EC50

Print α7–5HT3 mutant chimeric channels (Homo sapiens, UniProt P36544, W77F) EC50 for `COC(=O)[C@H]1[C@@H](OC(=O)c2ccccc2)C[C@@H]2CC[C@H]1N2C` .
> 30 µM

###

Kindly state Max normalized Response for each of the entries shown.
# System: coca-5HT3 (α7(L141G,G175K,Y210F,Y217F)–5HT3) (Homo sapiens, UniProt P36544, G175K/L141G/Y210F/Y217F)
# Sequence (P36544 23-224 L141G/G175K/Y210F/Y217F): as the sequence (P36544 23-224 Q139F) above, with F117Q, L119G, G153K, Y188F, Y195F counted along it
# Sequence (P23979 242-489, further chain): as the sequence (P23979 242-489, further chain) above
# Protocol: Membrane potential assay, coca-5HT3 in HEK293
# Experimental Parameters: coca-5HT3; conc 0.137 uM; ED Fig 3b
Numbers only.

1. C[N+]1(C)[C@@H]2C[C@@H](OC(=O)[C@H](CO)c3ccccc3)C[C@H]1[C@@H]1O[C@@H]12 ... 0.01611
2. O=C(O[C@H]1C[C@H]2CC[C@@H](C1)[N+]21CCCC1)C(O)(c1ccccc1)c1ccccc1 ... 0.127
3. CN1[C@@H]2CC[C@H]1C[C@@H](OC(c1ccccc1)c1ccccc1)C2 ... 0.05732
4. CCN(CC)CC(=O)Nc1c(C)cccc1C ... 0.1106
5. CN1[C@@H]2C[C@@H](OC(=O)[C@H](CO)c3ccccc3)C[C@H]1[C@@H]1O[C@@H]12 ... 0.06195

The following compounds each have a reported value; give each one's Max normalized Response.
1. CC[N+]1(C)[C@@H]2CC(OC(=O)[C@H](CO)c3ccccc3)C[C@H]1[C@@H]1O[C@@H]12 (stereo partly shown)
2. CCCC[N+]1(C)[C@@H]2C[C@@H](OC(=O)[C@H](CO)c3ccccc3)C[C@H]1[C@@H]1O[C@@H]12 (stereo partly shown)
3. C[N+]1(C)[C@@H]2C[C@@H](OC(=O)C(O)(c3cccs3)c3cccs3)C[C@H]1[C@@H]1O[C@@H]12
4. CC(C)[N+]1(C)[C@@H]2CC[C@H]1C[C@@H](OC(=O)C(CO)c1ccccc1)C2 (stereo partly shown)

0.04923
0.07428
0.05284
0.03351

The following compounds each have a reported value; give each one's Max normalized Response.
1. CN1[C@@H]2CC[C@H]1C[C@@H](OC(=O)[C@H](CO)c1ccccc1)C2
2. COC(=O)[C@H]1[C@@H](OC(=O)c2ccccc2)C[C@@H]2CC[C@H]1N2C
3. C[N+]1(C)[C@@H]2CC[C@H]1C[C@@H](OC(=O)C(CO)c1ccccc1)C2 (stereo partly shown)
4. CCN(CC)CCOC(=O)c1ccc(N)cc1

0.1005
0.07313
0.09159
0.07766

###

# System: coca-5HT3 (α7(L141G,G175K,Y210F,Y217F)–5HT3) (Homo sapiens, UniProt P36544, G175K/L141G/Y210F/Y217F)
# Protocol: Membrane potential assay, coca-5HT3 in HEK293
# Experimental Parameters: coca-5HT3; conc 11.1 uM; ED Fig 3b
Kindly state Max normalized Response for each of the entries shown.
Give bare numbers.

1) CC[N+]1(C)[C@@H]2CC(OC(=O)[C@H](CO)c3ccccc3)C[C@H]1[C@@H]1O[C@@H]12 (some centres unmarked) ... 0.1339
2) C[N+]1(C)[C@@H]2C[C@@H](OC(=O)[C@H](CO)c3ccccc3)C[C@H]1[C@@H]1O[C@@H]12 ... 0.03432
3) CCCC[N+]1(C)[C@@H]2C[C@@H](OC(=O)[C@H](CO)c3ccccc3)C[C@H]1[C@@H]1O[C@@H]12 (some centres unmarked) ... 0.07366
4) CN1[C@@H]2CC[C@H]1C[C@@H](OC(c1ccccc1)c1ccccc1)C2 ... 0.2931
5) COC(=O)[C@H]1[C@@H](OC(=O)c2ccccc2)C[C@@H]2CC[C@H]1N2C ... 0.7653

The following molecules each have a reported value; give each one's Max normalized Response.
1. C[N+]1(C)[C@@H]2C[C@@H](OC(=O)C(O)(c3cccs3)c3cccs3)C[C@H]1[C@@H]1O[C@@H]12
2. CN1[C@@H]2CC[C@H]1C[C@@H](OC(=O)[C@H](CO)c1ccccc1)C2
3. O=C(O[C@H]1C[C@H]2CC[C@@H](C1)[N+]21CCCC1)C(O)(c1ccccc1)c1ccccc1

1. 0.04379
2. 0.09524
3. 0.1005
